# target-system: NLRP3 inflammasome (Homo sapiens)
# Construct: endogenous in cells
# assay-procedure: IL-1β secretion assay (NLRP3 IC50) in LPS-primed, nigericin-activated THP-1 cells, HTRF
# measurement-parameters: monocytic THP-1 cells; LPS 10 ng/mL 3 h priming, then compound + nigericin 10 μM 2 h; relative IC50, 10 concentrations, geometric mean
readout-type: IC50 (nM)

CC(=O)N1CC[C@H]2OCCN(c3cc(C)c(-c4ccc(C(F)(F)F)cc4O)nn3)[C@H]2C1 = 16

I. CCc1cccc(O)c1-c1ccc(N2CCO[C@@H]3CCN(CC)C[C@@H]32)nn1
II. Cc1cc(Cl)cc(O)c1-c1cc(C(F)F)c(N2CCO[C@H](CO)C2)nn1
III. CCc1cc(C)cc(O)c1-c1ccc(N2CCO[C@H](CO)C2)nn1
List items by IC50 in falling order. Put the labels in the requested order and write them down.
III, II, I
(III: 12 nM, II: 7 nM, I: 2 nM)

====

# target-system: NLRP3 inflammasome (Homo sapiens)
# Construct: endogenous in cells
# assay-procedure: IL-1β secretion assay (NLRP3 IC50) in LPS-primed, nigericin-activated THP-1 cells, HTRF
# measurement-parameters: monocytic THP-1 cells; LPS 10 ng/mL 3 h priming, then compound + nigericin 10 μM 2 h; relative IC50, 10 concentrations, geometric mean
readout-type: IC50 (nM)

CC(=O)N1C[C@@H]2OCCN(c3ccc(-c4c(C)cc(C(F)(F)F)cc4O)nn3)[C@@H]2C1 (racemic) [Example 335] = 481

A. Cc1cc(C(F)(F)F)cc(O)c1-c1ccc(N2CCO[C@H]3CN(C)C[C@H]32)nn1 (single isomer, unassigned)
B. CCN1CC[C@@H]2CCN(c3cc(C(F)F)c(-c4ccc(C(F)(F)F)cc4O)nn3)[C@@H]2C1 (single isomer, unassigned)
For the pair A and B , which member has the lower IC50 number? Your answer should be the label attached to the chosen record.
B

====

# target-system: NLRP3 inflammasome (Homo sapiens, UniProt Q96P20)
# Construct: endogenous in cells
# Sequence (Q96P20 whole entry): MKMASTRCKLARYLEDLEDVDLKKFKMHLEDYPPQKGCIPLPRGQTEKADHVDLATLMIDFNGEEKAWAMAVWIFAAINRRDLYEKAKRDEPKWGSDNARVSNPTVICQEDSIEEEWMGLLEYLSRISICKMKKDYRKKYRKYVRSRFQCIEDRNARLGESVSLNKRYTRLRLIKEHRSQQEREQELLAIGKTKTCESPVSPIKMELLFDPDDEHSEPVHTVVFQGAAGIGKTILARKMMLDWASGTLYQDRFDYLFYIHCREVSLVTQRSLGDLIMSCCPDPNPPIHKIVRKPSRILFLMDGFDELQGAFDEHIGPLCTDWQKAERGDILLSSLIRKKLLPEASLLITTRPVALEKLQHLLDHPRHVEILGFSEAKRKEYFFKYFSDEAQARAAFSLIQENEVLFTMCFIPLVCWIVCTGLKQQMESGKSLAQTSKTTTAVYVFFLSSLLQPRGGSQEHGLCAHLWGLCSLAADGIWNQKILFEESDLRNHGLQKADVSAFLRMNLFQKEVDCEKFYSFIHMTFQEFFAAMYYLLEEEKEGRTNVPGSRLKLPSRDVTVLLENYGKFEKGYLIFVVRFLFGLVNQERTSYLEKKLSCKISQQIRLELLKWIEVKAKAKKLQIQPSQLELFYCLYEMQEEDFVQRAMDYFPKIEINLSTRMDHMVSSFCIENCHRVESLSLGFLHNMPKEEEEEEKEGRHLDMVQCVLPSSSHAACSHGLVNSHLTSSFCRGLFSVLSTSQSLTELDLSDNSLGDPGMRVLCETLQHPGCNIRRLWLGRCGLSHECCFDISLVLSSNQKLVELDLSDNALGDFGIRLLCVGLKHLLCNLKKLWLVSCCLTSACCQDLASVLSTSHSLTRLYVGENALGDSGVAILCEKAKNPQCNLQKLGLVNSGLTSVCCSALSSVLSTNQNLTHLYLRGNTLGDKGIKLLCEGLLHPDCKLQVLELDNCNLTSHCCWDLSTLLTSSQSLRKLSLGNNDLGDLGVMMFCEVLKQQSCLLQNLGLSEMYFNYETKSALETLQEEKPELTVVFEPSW
# assay-procedure: IL-1β secretion assay (NLRP3 IC50) in LPS-primed, nigericin-activated THP-1 cells, HTRF
# measurement-parameters: monocytic THP-1 cells; LPS 10 ng/mL 3 h priming, then compound + nigericin 10 μM 2 h; relative IC50, 10 concentrations, geometric mean
pIC50: −log10 of the molar value.
readout-type: pIC50

See these solved cases before continuing.
COC[C@H]1CCN(c2ccc(-c3c(C)cc(C)cc3O)nn2)C1 = 6.32
Cc1cc(C(F)F)cc(O)c1-c1ccc(N2CCO[C@H](CO)C2)nn1 = 7.15
CCC(=O)C1CN(c2ccc(-c3c(C)cc(C)cc3O)nn2)CCO1 (single isomer, unassigned) [Example 157] = 6.50
Cc1cc(C(F)(F)F)cc(O)c1-c1ccc(N2CCC[C@H](CO)C2=O)nn1 (single isomer, unassigned) = 6.94
OC[C@@H]1CN(c2ccc(-c3c(O)cc(Cl)cc3Cl)nn2)CCO1 = 7.70

P. Cc1cc(C)c(-c2ccc(N3CCc4cccc(O)c43)nn2)c(O)c1
Q. Cc1cc(C)c(-c2ccc(N3CCO[C@H]4CCNC[C@H]43)nn2)c(O)c1 (racemic) [Example 195]
R. CNC(=O)C[C@@H]1CN(c2ccc(-c3c(C)cc(C)cc3O)nn2)CCO1 (single isomer, unassigned)
Please produce an ascending ranking of these compounds based on pIC50. Answer by naming the labels in the order asked.
P, R, Q
